Reported T/C values are given for each entry in this list.
Test system: P388 leukemia ip, CD2F1 mice, survival T/C
Test: NCI In Vivo Anticancer Drug Screen. Data for tumor model P388 Leukemia (intraperitoneal) in CD2F1 (CDF1) mice
Conditions: endpoint: median survival time; dose: 50.0 mg/kg/injection; schedule: Q01DX009 (ip); vehicle: saline with Tween-80; higher = longer survival
Procedure: The antitumor activity of compounds was measured in mice bearing transplantable tumors. Survival or tumor size were measured and the results are expressed as the measurement made in the treated group (T) divided by the measurement made in the vehicle treated control group (C). The tumor model used in this assay is P388 Leukemia (intraperitoneal) in CD2F1 (CDF1) mice
Inconclusive results and toxic doses are left out.

{"COMPOUND": "COc1ccc(C#CC2(O)c3ccccc3C(O)(C#Cc3ccc(OC)cc3)c3ccccc32)cc1 (stereo unspecified)", "T/C": "98 % of control"}
{"COMPOUND": "C=CCC1(CCC)C(=O)NC(=S)NC1=O", "T/C": "110 % of control"}
{"COMPOUND": "CC1(CO)C(O)CCC2(C)C1CCC1CC3CC12CCC3(O)CO (stereo unspecified)", "T/C": "115 % of control"}
{"COMPOUND": "CCCN=C(N)c1ccc(NC(=O)c2ccc(C(=O)Nc3ccc(C(N)=NCCC)cc3)cc2)cc1", "T/C": "90 % of control"}
{"COMPOUND": "CN1CCCC(C(O)c2ccccc2)S1(=O)=O (stereo unspecified)", "T/C": "96 % of control"}
{"COMPOUND": "S=C(SCc1ccccc1)N1CCN(C(=S)SCc2ccccc2)CC1", "T/C": "89 % of control"}

---

system: P388 leukemia ip, CD2F1 mice, survival T/C; assay: NCI In Vivo Anticancer Drug Screen. Data for tumor model P388 Leukemia (intraperitoneal) in CD2F1 (CDF1) mice; settings: endpoint: median survival time; dose: 100.0 mg/kg/injection; schedule: Q01DX001 (ip); vehicle: Klucel (hydroxypropylcellulose) (HPC); higher = longer survival
Toxic doses and inconclusive results are not listed.
Recorded T/C for the following compounds

{"COMPOUND": "CCCCCCCCCc1cc(=O)[nH]c(=O)[nH]1", "T/C": "96 % of control"}
{"COMPOUND": "CS(=O)(=O)OCCN(CCOS(C)(=O)=O)c1ccc([N+](=O)[O-])cc1[N+](=O)[O-]", "T/C": "88 % of control"}
{"COMPOUND": "CC1(CC(=O)O)OC(c2ccccc2)=CC1=O (stereo not drawn)", "T/C": "98 % of control"}
{"COMPOUND": "O=[N+]([O-])c1ccc(OS(=O)(=O)/C=C/c2ccccc2)cc1", "T/C": "99 % of control"}
{"COMPOUND": "CC12CSC(C)(SC1)SC2", "T/C": "100 % of control"}
{"COMPOUND": "COc1ccc2oc(N(C)c3ccccc3)c(C3OC4OC(C)(C)OC4C3OC)c(=O)c2c1 (stereo not drawn)", "T/C": "109 % of control"}
{"COMPOUND": "Cc1ccc(-c2nc3n(c2/C=N/NS(=O)(=O)c2ccc(C)cc2)CCS3)cc1", "T/C": "100 % of control"}
{"COMPOUND": "CS(=O)(=O)OCC(O)C(O)COS(C)(=O)=O (stereo not drawn)", "T/C": "110 % of control"}
{"COMPOUND": "C(=C1SCCCS1)c1cc2c(cc1OCc1ccccc1)OCO2", "T/C": "100 % of control"}
{"COMPOUND": "O=C1c2ccccc2-c2c1c1ccccc1n2S(=O)(=O)c1ccccc1", "T/C": "103 % of control"}
{"COMPOUND": "O=c1[nH]cc(-c2ccccc2)c(=O)[nH]1", "T/C": "100 % of control"}
{"COMPOUND": "O=Nc1ccc(Cn2cc(Br)c(=O)[nH]c2=O)o1", "T/C": "108 % of control"}
{"COMPOUND": "Cc1c(Cl)cc([N+](=O)[O-])cc1S(=O)(=O)Oc1ccccc1", "T/C": "103 % of control"}
